target: S1P1 (Homo sapiens (Human)); assay: 35S-GTPγS binding assay, S1P1 membranes; settings: membranes from CHO cells expressing S1P1; read-out: S1P1 GTPyS EC50
Sequence (P21453 whole entry, species assumed): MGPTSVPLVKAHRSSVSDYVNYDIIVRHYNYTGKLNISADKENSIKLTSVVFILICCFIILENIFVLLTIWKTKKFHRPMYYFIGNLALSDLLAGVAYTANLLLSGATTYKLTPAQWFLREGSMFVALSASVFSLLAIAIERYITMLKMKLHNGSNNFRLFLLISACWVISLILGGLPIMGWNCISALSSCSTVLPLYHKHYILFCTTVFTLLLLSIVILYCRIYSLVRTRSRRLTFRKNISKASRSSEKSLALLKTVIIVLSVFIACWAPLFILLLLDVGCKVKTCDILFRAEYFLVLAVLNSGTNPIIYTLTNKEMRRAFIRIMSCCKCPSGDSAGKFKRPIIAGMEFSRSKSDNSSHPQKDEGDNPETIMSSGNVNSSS
value kind: EC50

compound: CNS(=O)(=O)c1ccc(NC(=O)c2cc(N(CC3CC3)C3CCCCC3)ncn2)c(C)c1 [Example 1-105]
value kind: EC50
result: 5.8 nM
--
compound: CCCN(CC1CC1)c1cc(C(=O)Nc2ccc(CN3CCC(O)C3)cc2C)ncn1 (stereo not drawn) [Example 1-142]
value kind: EC50
result: 465 nM
--
compound: CCOC(=O)CCS(=O)(=O)Cc1ccc(NC(=O)c2cc(N(CC3CC3)C3CCCCC3)ncn2)cc1 [Example 1-130]
value kind: EC50
result: 537 nM
